Hey, just so you know, these numbers are from ChEMBL document CHEMBL5291721.

Target: 5-hydroxytryptamine receptor 2B (Homo sapiens, UniProt P41595); note: assay procedure not described here
Sequence (P41595 whole entry): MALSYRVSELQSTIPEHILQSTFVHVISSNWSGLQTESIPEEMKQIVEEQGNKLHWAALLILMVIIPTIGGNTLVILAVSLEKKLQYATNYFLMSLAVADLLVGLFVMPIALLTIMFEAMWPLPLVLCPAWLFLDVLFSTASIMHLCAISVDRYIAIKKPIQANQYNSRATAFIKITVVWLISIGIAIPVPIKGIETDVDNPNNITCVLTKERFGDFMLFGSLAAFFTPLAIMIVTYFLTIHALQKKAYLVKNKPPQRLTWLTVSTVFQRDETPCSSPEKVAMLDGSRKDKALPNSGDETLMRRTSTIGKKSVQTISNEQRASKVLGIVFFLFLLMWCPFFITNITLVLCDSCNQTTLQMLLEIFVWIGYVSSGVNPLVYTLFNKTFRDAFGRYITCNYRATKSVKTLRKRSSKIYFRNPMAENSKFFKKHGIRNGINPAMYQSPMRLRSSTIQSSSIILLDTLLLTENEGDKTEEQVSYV
Format: functional, cell-based
measured-metric: AC50

Returns the measured AC50 for the input molecule. Input: COc1ccc2c3c1O[C@H]1[C@@H](O)CC[C@H]4[C@@H](C2)N(C)CC[C@@]341 [DIHYDROCODEINE]
> 30 µM

More entries:
What measured AC50 goes with CN(C)CCC=C1c2ccccc2C(C)(C)c2ccccc21 ?
> 30 µM

What value of measured AC50 is listed for CC(C)(C)NCC(O)COc1cccc2c1CCC(=O)N2 (stereo not drawn) [CARTEOLOL] ?
> 10 µM

Sample Cc1cccc(C(C)c2cnc[nH]2)c1C (stereo not drawn) [MEDETOMIDINE] — what was its AC50?
> 30 µM

What value of AC50 has been recorded for this entry: N[C@@H]1[C@H]2CN(c3nc4c(cc3F)c(=O)c(C(=O)O)cn4-c3ccc(F)cc3F)C[C@@H]12 [TROVAFLOXACIN]
> 30 µM

Please look up its AC50: C#C[C@]1(O)CC[C@H]2[C@@H]3CCc4cc(OC5CCCC5)ccc4[C@H]3CC[C@@]21C [QUINESTROL]
> 10 µM

Sample C[C@@H]1O[C@@H](O[C@@H]2C=C3CC[C@@H]4[C@H](CC[C@]5(C)[C@@H](c6ccc(=O)oc6)CC[C@]45O)[C@@]3(C)CC2)[C@H](O)[C@H](O)[C@H]1O [PROSCILLARIDIN] — what was its AC50?
> 30 µM

Suppose we examine the molecule Fc1ccc(C(c2ccccc2)(c2ccccc2F)n2ccnc2)cc1 (stereo not drawn) [FLUTRIMAZOLE] ; what AC50 value has been reported?
> 30 µM
